molecular target: T1, human a-PD-L1 Fc (Sino Biological, 10084-H02H, LC11NO2402) (human, UniProt Q9NZQ7 19-239); test: SPR, PD-L1 Fc immobilised, scFv analyte, 1:1 fit
T1 construct: Bought Fc fusion immobilised on the SPR chip; Printed as 'a-PD-L1 Fc' but used as the antigen (ligand) for the anti-PD-L1 scFvs; also called Human PD-L1; not shown: Fc part
T1 sequence (Q9NZQ7 19-239 limits assumed): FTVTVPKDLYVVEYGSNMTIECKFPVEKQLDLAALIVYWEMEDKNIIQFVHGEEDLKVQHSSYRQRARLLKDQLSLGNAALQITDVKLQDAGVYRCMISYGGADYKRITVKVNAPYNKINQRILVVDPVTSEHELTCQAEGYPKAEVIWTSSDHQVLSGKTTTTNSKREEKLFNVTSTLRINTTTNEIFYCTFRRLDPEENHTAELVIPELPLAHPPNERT
experimental.endpoint: n-fold to wt (fold)
Response body: numeric value in fold, unit text excluded.

binder	experimental.endpoint	unit.info	val
PRO2948 (scFv 37-20-B03-sc09.1_(T146R)) (scFv, PRO2230 variant; VH substitution, AHo numbering; also called PRO2230 T146R) scFv: DIQMTQSPASLSASVGDRVTITCQASQSIGTYLAWYQQKPGKPPKLLIYRAFILASGVPSRFSGSGSGTDFTLTISSLQPEDFATYYCQSNFYSDSTTIGPNAFGTGTKVTVLGGGGGSGGGGSGGGGSGGGGSEVQLVESGGGLVQPGGSLRLSCAASGFSFNSDYWIYWVRQAPGKGLEWIASIYGGSSGNTQYASWAQGRFTISRDNSKNTVYLQMNSLRAEDTAVYFCARGYVDYGGATDLWGQGTLVRVSS	n-fold to wt	fold	1.3
PRO2952 (scFv 37-20-B03-sc09.1_(T101S)) (scFv, PRO2230 variant; VH substitution, AHo numbering; also called PRO2230 T101S) scFv: DIQMTQSPASLSASVGDRVTITCQASQSIGTYLAWYQQKPGKPPKLLIYRAFILASGVPSRFSGSGSGTDFTLTISSLQPEDFATYYCQSNFYSDSTTIGPNAFGTGTKVTVLGGGGGSGGGGSGGGGSGGGGSEVQLVESGGGLVQPGGSLRLSCAASGFSFNSDYWIYWVRQAPGKGLEWIASIYGGSSGNTQYASWAQGRFTISRDNSKNTVYLQMNSLRAEDSAVYFCARGYVDYGGATDLWGQGTLVTVSS	n-fold to wt	fold	0.7
PRO2950 (scFv 37-20-B03-sc09.1_(T146Q)) (scFv, PRO2230 variant; VH substitution, AHo numbering; also called PRO2230 T146Q) scFv: DIQMTQSPASLSASVGDRVTITCQASQSIGTYLAWYQQKPGKPPKLLIYRAFILASGVPSRFSGSGSGTDFTLTISSLQPEDFATYYCQSNFYSDSTTIGPNAFGTGTKVTVLGGGGGSGGGGSGGGGSGGGGSEVQLVESGGGLVQPGGSLRLSCAASGFSFNSDYWIYWVRQAPGKGLEWIASIYGGSSGNTQYASWAQGRFTISRDNSKNTVYLQMNSLRAEDTAVYFCARGYVDYGGATDLWGQGTLVQVSS	n-fold to wt	fold	1.3
PRO2915 (scFv 37-20-B03-sc09.1_(L12A, T101S, L144A, T146Q)) (scFv, PRO2230 variant; VH substitutions, AHo numbering; also called PRO2230 L12A-T101S-L144A-T146Q) scFv: DIQMTQSPASLSASVGDRVTITCQASQSIGTYLAWYQQKPGKPPKLLIYRAFILASGVPSRFSGSGSGTDFTLTISSLQPEDFATYYCQSNFYSDSTTIGPNAFGTGTKVTVLGGGGGSGGGGSGGGGSGGGGSEVQLVESGGGAVQPGGSLRLSCAASGFSFNSDYWIYWVRQAPGKGLEWIASIYGGSSGNTQYASWAQGRFTISRDNSKNTVYLQMNSLRAEDSAVYFCARGYVDYGGATDLWGQGTAVQVSS	n-fold to wt	fold	1
PRO3340 (scFv 37-20-B03-sc09.1_(T101S, T146K)) (scFv, PRO2230 variant; VH substitutions, AHo numbering; also called PRO2230 T101S-T146K) scFv: DIQMTQSPASLSASVGDRVTITCQASQSIGTYLAWYQQKPGKPPKLLIYRAFILASGVPSRFSGSGSGTDFTLTISSLQPEDFATYYCQSNFYSDSTTIGPNAFGTGTKVTVLGGGGGSGGGGSGGGGSGGGGSEVQLVESGGGLVQPGGSLRLSCAASGFSFNSDYWIYWVRQAPGKGLEWIASIYGGSSGNTQYASWAQGRFTISRDNSKNTVYLQMNSLRAEDSAVYFCARGYVDYGGATDLWGQGTLVKVSS	n-fold to wt	fold	1.1

Next up:
For record PRO2985 (scFv 37-20-B03-sc09.1_(T101A)) (scFv, PRO2230 variant; VH substitution, AHo numbering; also called PRO2230 T101A) scFv: DIQMTQSPASLSASVGDRVTITCQASQSIGTYLAWYQQKPGKPPKLLIYRAFILASGVPSRFSGSGSGTDFTLTISSLQPEDFATYYCQSNFYSDSTTIGPNAFGTGTKVTVLGGGGGSGGGGSGGGGSGGGGSEVQLVESGGGLVQPGGSLRLSCAASGFSFNSDYWIYWVRQAPGKGLEWIASIYGGSSGNTQYASWAQGRFTISRDNSKNTVYLQMNSLRAEDAAVYFCARGYVDYGGATDLWGQGTLVTVSS the listed n-fold to wt is 1
